tested-on: recombinant human LDHA (Homo sapiens, UniProt P00338)
Construct: purchased Abcam
experiment: hLDHA enzymatic activity assay (kinetic spectrofluorimetric, β-NADH fluorescence decrease)
Assay type: biochemical
assay-conditions: mean ± SD of n = 3 replicates; 1 mM pyruvate, 155 µM β-NADH, pH 7.3, 28 °C; read-out: hLDHA IC50
experimental-readout: pIC50
// scale note: pIC50 = -log10(conc_M); give the bare number

Field: example entries. Status: answers known.
>  <molecule>
COc1ccc(C2CC3=C(C(=O)O2)C2CC(c4ccc(OC)c(OC)c4)(O3)Oc3ccc([N+](=O)[O-])cc32)cc1 (racemic) [(±)-67b]

>  <tested-on>
recombinant human LDHA (Homo sapiens, UniProt P00338)

>  <pIC50>
4.84

$$$$
>  <molecule>
O=C1C2=C(C(=O)c3ccccc31)C1CC(c3ccc(O)c(O)c3)(O2)Oc2ccc([N+](=O)[O-])cc21 (racemic) [(±)-55]

>  <tested-on>
recombinant human LDHA (Homo sapiens, UniProt P00338)

>  <pIC50>
4.56

$$$$
>  <molecule>
COc1ccc(C23CC(C4=C(CC(c5ccccc5)OC4=O)O2)c2cc([N+](=O)[O-])ccc2O3)cc1OC (racemic) [(±)-65a]

>  <tested-on>
recombinant human LDHA (Homo sapiens, UniProt P00338)

>  <pIC50>
4.90

$$$$
>  <molecule>
COc1ccc(C23CC(c4cc(Cl)ccc4O2)c2c(c4ccccc4oc2=O)O3)cc1OC (racemic) [(±)-50]

>  <tested-on>
recombinant human LDHA (Homo sapiens, UniProt P00338)

>  <pIC50>
4.88

$$$$
>  <molecule>
COc1ccc(C23CC(c4ccccc4O2)c2c(O)cc(O)cc2O3)cc1OC (racemic) [(±)-42]

>  <tested-on>
recombinant human LDHA (Homo sapiens, UniProt P00338)

>  <pIC50>
3.81

$$$$

Incoming: Given the entry O=c1oc2ccccc2c2c1C1CC(c3ccc(O)cc3)(Oc3ccc([N+](=O)[O-])cc31)O2 (racemic) [(±)-52] , what pIC50 was observed with recombinant human LDHA (Homo sapiens, UniProt P00338)?
Outgoing: 4.43

Incoming: // lookup pIC50 | system=recombinant human LDHA (Homo sapiens, UniProt P00338) | key= COc1ccc(C23CC(c4cc([N+](=O)[O-])ccc4O2)c2c(c4ccccc4oc2=O)O3)cc1OC (racemic) [(±)-49]
Outgoing: 4.59

Incoming: Given the entry COc1ccc(C23CC(c4ccccc4O2)c2c(c4ccccc4oc2=O)O3)cc1OC (racemic) [(±)-48] , what pIC50 was observed with recombinant human LDHA (Homo sapiens, UniProt P00338)?
Outgoing: 4.30

Incoming: Tell me reported pIC50 for COc1ccc([C@]23C[C@H](C4=C(C[C@H](c5ccccc5)OC4=O)O2)c2ccccc2O3)cc1OC (racemic) [(±)-62b] , tested with recombinant human LDHA (Homo sapiens, UniProt P00338).
Outgoing: 4.40

Incoming: Short answer please: pIC50, recombinant human LDHA (Homo sapiens, UniProt P00338), entry COc1ccc(C2CC3=C(C(=O)O2)C2CC(c4ccc(OC)c(OC)c4)(O3)Oc3ccc([N+](=O)[O-])cc32)cc1 (racemic) [(±)-67a]
Outgoing: 4.83

Incoming: Give recombinant human LDHA (Homo sapiens, UniProt P00338) pIC50 for COc1ccc(C23CC(C4=C(O2)C(=O)c2ccccc2C4=O)c2ccccc2O3)cc1OC (racemic) [(±)-57]
Outgoing: 4.37

Incoming: Please state recorded pIC50 (tested on recombinant human LDHA (Homo sapiens, UniProt P00338)) of COc1ccc(C2CC3=C(C(=O)O2)C2CC(c4ccc(OC)c(OC)c4)(O3)Oc3ccc(Cl)cc32)cc1 (racemic) [(±)-70a]
Outgoing: 3.95

Origin of measurements: paper PMC10298284
